system: U2OS; experiment: Here: values are normalized to the negative (DMSO; defined as 0% autophagy induction) and positive (250nM Torin1; mTOR inhibitor; defined as maximal inducer of autophagy = 100%) control compounds and represented as % of autophagy induction. […] The impact of autophagy induction on cells is complex and depends on the affected target. As such, the magnitude of a phenotype may not be equally mirrored in the %-value of autophagy induction and vice versa. The dynamics of the induction may indicate the mode of activation: e.g. activation via phosphorylation or a signaling cascade may occur fast, while activation via transcription factors may take considerably longer. […] Of note, treatment concentrations may be sub-optimal for specific compounds, leading to false negative annotations.; assay type: functional, Homo sapiens; conditions: Compound Concentration 2 uM, Timepoint 12 hours, Culturing Media DMEM, 1 % Penicillin/Streptomycin, 10% Fetal bovin serum Add-On: No, Screening Media Control DMEM, Screening Media Samples DMEM
I'd appreciate it if you could supply autophagy induction values for the items below.
Express your answer in %, writing the number without its unit.

### Prompt Fill in: autophagy induction of "N#Cc1c(N)nc(SCC(N)=O)c(C#N)c1-c1ccc(OCC2CC2)cc1" is ___
### Response 4.971

### Prompt Moving on to the next compound: "CN(C)S(=O)(=O)c1ccc(NC(=S)N2CCC(C(O)(c3ccccc3)c3ccccc3)CC2)cc1"
### Response -4.133

### Prompt Also need "CCOC(=O)c1cc(C#N)c(N2CCC(C(=O)NS(=O)(=O)Cc3ccccc3)CC2)nc1C" , thanks.
### Response 4.284

### Prompt CC(C)NCC(O)c1ccc(N)c(C#N)c1 (configuration not stated) ?
### Response -0.2215

### Prompt What do we get for "Cl.Cl.Cl.c1ccc(N2CCN(Cc3nc4ccccc4[nH]3)CC2)nc1" ?
### Response -2.768

### Prompt How about this compound: "CC1=C2C[C@H]3[C@@H](CC=C4C[C@@H](O)CC[C@@]43C)[C@@H]2CC[C@]12O[C@@H]1C[C@H](C)CN[C@H]1[C@H]2C"
### Response -23.8167

### Prompt What do we get for CC(C)(N)C(=O)N[C@H](COCc1ccccc1)C(=O)N1CCC2(CC1)CN(S(C)(=O)=O)c1ccccc12.CS(=O)(=O)O [IBUTAMOREN MESYLATE] ?
### Response 2.232

### Prompt Consider next the compound "CC(C)C[C@H](NC(=O)N1CCCCCC1)C(=O)N[C@H](Cc1cn(C)c2ccccc12)C(=O)N[C@H](Cc1ccccn1)C(=O)O" in the same way.
### Response 2.596

### Prompt Quick one: "Cc1csc2c(N[C@@H](C)CN3CCN(S(=O)(=O)c4ccc(Cl)c(Cl)c4)CC3)ncnc12"
### Response 4.101

### Prompt And the next one, "O=C1O[C@]2(CC[C@H](C(=O)Nc3ccn(-c4ccccc4F)n3)CC2)c2cnccc21" ?
### Response 0.04111

### Prompt Also "O=C(O)C1CN(Cc2ccc(-c3nc4cc(Cc5ccccc5F)ccc4s3)c(F)c2)C1" , if possible.
### Response 1.76

### Prompt Queued: "C[C@H](CO)Nc1nc(SCc2cccc(Cl)c2F)nc2[nH]c(=O)sc12"
### Response -11.0736

### Prompt Further, for "O=C1N/C(=N/c2ccccc2F)S/C1=C\c1ccc(C(=O)O)cc1" ?
### Response 4.489

### Prompt # repeat for "Cc1cc(NC(=O)Nc2ccc(N(C)C)cc2)c2cc(F)cc(F)c2n1"
### Response -0.9187

### Prompt Then this compound: "Cc1csc(NC(=O)c2cc(F)cc(Oc3cncnc3)c2)n1"
### Response -5.1627

### Prompt // repeat for "COc1ccnc(N2CCC3(CCCN(Cc4c[nH]c5ccccc45)C3=O)CC2)n1" and report
### Response -9.208

### Prompt Can you check "COc1ccc(S(=O)(=O)N2c3ccc(Cl)cc3[C@](O)(c3ccccc3Cl)[C@@H]2C(=O)N2CCC[C@H]2C(N)=O)cc1OC" next?
### Response -3.799

Data provenance: ChEMBL document CHEMBL5724696
